System: M17-TAU P301L cells
Assay: TAU cytotoxicity assay: LDH leakage of retinoic acid incubated M17-TAU P301L cells
Assay type: cell-based, human
Conditions: Homo sapiens, 168 h, reduction of LDH activity of retinoic acid incubated M17-TAU P301L cells, 7 days
Each record here notes measured log10 of EC50.
A value of 2 here means EC50 of 100 in nM, since values are log10.

Cc1ccc(Cc2cc(C(=O)NCCc3c[nH]c4ccc(Cl)cc34)no2)cc1; 1.23

Consider the record given below.
Look up log10 of EC50 for this compound: CCOCc1cc(C(=O)NCCc2c[nH]c3ccc(Cl)cc23)no1
1.28

====

Test system: M17-TAU P301L cells
Experiment: TAU cytotoxicity assay: LDH leakage of retinoic acid incubated M17-TAU P301L cells
Assay type: cell-based, human
Details: Homo sapiens, 168 h, reduction of LDH activity of retinoic acid incubated M17-TAU P301L cells, 7 days
EC50 strictly less than 80 nM = satisfied. Otherwise not satisfied.

O=C(NCCc1c[nH]c2ccc(Cl)cc12)c1cc(Cc2ccc(F)c(F)c2)on1; satisfied
Cc1ccc(-c2nc(C)c(C(=O)NCCc3c[nH]c4ccccc34)s2)cc1; satisfied
CCOCC1CC(C(=O)NCCc2c[nH]c3ccc(Cl)cc23)=NO1 (stereo not drawn); satisfied
O=C(NCCc1c[nH]c2ccc(Cl)cc12)c1cc(CN2CCCC2)on1; not satisfied
O=C(NCCc1c[nH]c2ccc(Cl)cc12)c1ncc(-c2ccccc2)o1; not satisfied

Now for another entry.
Please let me know if O=C(NCCc1c[nH]c2ccc(Cl)cc12)C1CCN(c2ccc(C(F)(F)F)cc2)C1=O (stereo not drawn) shows EC50 below 80 nM.
satisfied

====

Tested on: M17-TAU P301L cells
Assay: TAU cytotoxicity assay: LDH leakage of retinoic acid incubated M17-TAU P301L cells
Type: cell-based, human
Conditions: Homo sapiens, 168 h, reduction of LDH activity of retinoic acid incubated M17-TAU P301L cells, 7 days
measurementName: pEC50
Please express pEC50 as -log10 of the molar concentration.

Previously resolved entries follow.
O=C(NCCc1c[nH]c2ccc(Cl)cc12)c1cc(Cc2ccncc2)on1 [Example D41]; 7.04
O=C(NCCc1c[nH]c2ccc(Cl)cc12)c1noc(Cc2cccc(Cl)c2)n1 [Example D190]; 7.60
O=C(NCCc1c[nH]c2ccc(Cl)cc12)c1nnc(C2CCCCC2)o1 [Example D77]; 6.23
Cc1onc(-c2ccccc2)c1C(=O)NCCc1c[nH]c2ccc(Cl)cc12 [Example D111]; 6.24
COc1ccc(Cc2cc(C(=O)NCCc3c[nH]c4ccc(Cl)cc34)no2)cc1 [Example D10]; 7.77
Cn1cc(CCNC(=O)c2cc(Cc3cccc(F)c3)on2)c2cc(Cl)ccc21 [Example D51]; 6.80
O=C(NCCc1c[nH]c2ccc(Cl)cc12)c1cc(-c2ccco2)on1 [Example D11]; 7.77
COc1ccccc1Cc1cc(C(=O)NCCc2c[nH]c3ccc(Cl)cc23)no1 [Example D8]; 7.80
O=C(NCCc1c[nH]c2ccc(Cl)cc12)N1CCC(c2ccccc2)C1 (centres unmarked) [Example D63]; 6.52
Cc1nc(-c2ccccc2)sc1C(=O)NCCc1c[nH]c2ccc(Cl)cc12 [Example D46]; 6.91

Record COc1ccc2[nH]cc(CCNC(=O)c3c(-c4ccccc4)noc3C)c2c1 [Example D109] : what is its pEC50 with M17-TAU P301L cells?
5.51

These data points were gathered from patent US8618138B2.
